# test: in vivo
# Set-up: species or system mice
# testContext: mouse, po, 100 mg/kg
assayEndpoint: Tmax (h)

| smilesEntry | val |
| --- | --- |
| COc1cccc2sc(-c3ccc(C(F)(F)F)cc3)nc12 | 1 |
